Molecular target: BTK (Homo sapiens (Human), UniProt Q06187)
Sequence (Q06187 whole entry): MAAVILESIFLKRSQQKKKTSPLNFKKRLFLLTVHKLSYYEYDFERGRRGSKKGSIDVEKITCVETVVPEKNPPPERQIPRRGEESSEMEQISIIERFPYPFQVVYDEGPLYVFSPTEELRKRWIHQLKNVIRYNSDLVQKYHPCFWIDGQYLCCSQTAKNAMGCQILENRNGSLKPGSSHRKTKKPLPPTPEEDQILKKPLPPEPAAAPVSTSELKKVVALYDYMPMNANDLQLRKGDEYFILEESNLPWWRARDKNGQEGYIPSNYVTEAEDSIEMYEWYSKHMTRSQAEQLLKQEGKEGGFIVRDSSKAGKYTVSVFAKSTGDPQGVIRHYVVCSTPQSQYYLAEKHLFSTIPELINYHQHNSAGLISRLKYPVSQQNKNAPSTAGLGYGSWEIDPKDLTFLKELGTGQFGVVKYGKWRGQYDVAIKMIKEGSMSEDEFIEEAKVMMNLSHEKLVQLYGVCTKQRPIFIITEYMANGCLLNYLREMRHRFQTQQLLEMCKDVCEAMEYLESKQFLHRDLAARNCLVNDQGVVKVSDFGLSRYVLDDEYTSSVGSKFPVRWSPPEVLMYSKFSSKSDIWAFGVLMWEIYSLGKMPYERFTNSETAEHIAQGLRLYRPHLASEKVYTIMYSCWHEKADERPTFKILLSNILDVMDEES
Experiment: Btk in vitro inhibitory activity (one of Method A TR-FRET, Method B electrophoretic mobility shift, Method C radiometric filter binding)
Assay type: biochemical
Property: IC50

>>> result("CN(C)C(=O)N(C)[C@@H]1CCCN(c2cnc(C(N)=O)c(Nc3ccc(C4CCN(S(C)(=O)=O)CC4)cc3)n2)C1 [Example 228]")
"10 to 100 nM"
>>> result("Cc1nc(Nc2nc(N3CCC[C@@H](NC(=O)N(C)C)C3)cnc2C(N)=O)ccc1F [Example 184]")
"100 to 1000 nM"
>>> result("COc1ccc(C(=O)N[C@@H]2CCCN(c3cnc(C(N)=O)c(Nc4ccc(N5CCOCC5=O)cc4)n3)C2)cc1 [Example 126]")
"10 to 100 nM"
>>> result("CC(C)(C)c1ccc(C(=O)N[C@@H]2CCCN(c3nnc(C(N)=O)c(Nc4ccc(S(C)(=O)=O)cc4)n3)C2)cc1 [Example 55]")
"10 to 100 nM"
>>> result("COc1ccc(C(=O)N[C@@H]2CCCN(c3cnc(C(N)=O)c(Nc4ccc(N5CCOCC5)nc4)n3)C2)cc1 [Example 124]")
"10 to 100 nM"
>>> result("CN1CCN([C@@H]2CCCN(c3cnc(C(N)=O)c(Nc4ccccc4)n3)C2)C1=O [Example 261]")
"10 to 100 nM"

###

Target: BTK (Homo sapiens (Human), UniProt Q06187)
Test: Btk in vitro inhibitory activity (one of Method A TR-FRET, Method B electrophoretic mobility shift, Method C radiometric filter binding)
Type: biochemical
Details: determined using one of the methods of Example 355a, 355b and 355c; read-out: BTK IC50
Property: IC50

>>> result("N#Cc1ccc(C(=O)N[C@@H]2CCCN(c3nnc(C(N)=O)c(Nc4ccc(C(=O)N5CCOCC5)cc4)n3)C2)cc1 [Example 7]")
"10 to 100 nM"
>>> result("CC(C)(C)c1ccc(C(=O)N[C@@H]2CCCN(c3cnc(C(N)=O)c(Nc4ccc(C(=O)N5CCOCC5)cc4)n3)C2)cc1 [Example 73]")
"< 10 nM"
>>> result("NC(=O)c1ncc(N2CCC[C@@H](NC(=O)c3cc4ccccc4s3)C2)nc1Nc1ccc(C2CCN(C3CC3)CC2)cc1 [Example 315]")
"10 to 100 nM"
>>> result("CCOc1ccc(C(=O)N[C@@H]2CCCN(c3nnc(C(N)=O)c(Nc4ccc(C(=N)N5CCCC5)cc4)n3)C2)cc1 [Example 343]")
"< 10 nM"
>>> result("CN(C)C(=O)N[C@@H]1CCCN(c2cnc(C(N)=O)c(Nc3ccc(N4CCN(C5CC5)CC4)cc3)n2)C1 [Example 214]")
"< 10 nM"
>>> result("COc1ccc(C(=O)N[C@@H]2CCCN(c3cnc(C(N)=O)c(Nc4ccc(C(=O)N(C)C)cc4)n3)C2)cc1 [Example 118]")
"10 to 100 nM"
>>> result("COc1ccc(C(=O)N[C@@H]2CCCN(c3cnc(C(N)=O)c(Nc4ccc(C5CCN(C(C)=O)CC5)cc4)n3)C2)cc1 [Example 139]")
"< 10 nM"
>>> result("CN1CCN([C@@H]2CCCN(c3cnc(C(N)=O)c(Nc4ccc(C5CCN(C6CCC6)CC5)cc4)n3)C2)C1=O [Example 258]")
"< 10 nM"
>>> result("COc1ccc(C(=O)N[C@@H]2CCCN(c3nnc(C(N)=O)c(Nc4ccc(C(=O)N5CCOCC5)cc4)n3)C2)cc1 [Example 10]")
"< 10 nM"
>>> result("NC(=O)c1ncc(N2CCC[C@@H](NC(=O)NC3CCOCC3)C2)nc1NC1CCOCC1 [Example 354]")
"1000 to 10000 nM"
>>> result("CCCn1nnc2cc(C(=O)N[C@@H]3CCCN(c4nnc(C(N)=O)c(Nc5ccc(C(=O)N6CCOCC6)cc5)n4)C3)ccc21 [Example 103]")
"< 10 nM"
>>> result("CC(C)[N+]1([O-])CCC(c2ccc(Nc3nc(N4CCC[C@@H](NC(=O)N(C)C)C4)cnc3C(N)=O)cc2)CC1 (stereo partly drawn) [Example 209]")
"10 to 100 nM"
>>> result("CN(C)C(=O)N[C@@H]1CCCN(c2cnc(C(N)=O)c(Nc3ccc(C4(C)CCN(C(=O)N(C)C)CC4)cc3)n2)C1 [Example 223]")
"< 10 nM"
>>> result("C[C@@H]1[C@H](NC(=O)N(C)C)CCCN1c1cnc(C(N)=O)c(Nc2ccc(C3CCN(C4CCCC4)CC3)cc2)n1 [Example 232]")
"< 10 nM"
>>> result("CCN1CCC(c2ccc(Nc3nc(N4CCC[C@@H](N5CCN(C)C5=O)C4)cnc3C(N)=O)cc2)CC1 [Example 257]")
"< 10 nM"
>>> result("C[C@@H]1[C@H](N)CCCN1c1cnc(C(N)=O)c(Nc2ccc(C3CCN(C4CCCC4)CC3)cc2)n1 [Example 230]")
"10 to 100 nM"
>>> result("COc1ccc(C(=O)N[C@@H]2CCCN(c3cnc(C(N)=O)c(Nc4ccc(C5CCN(CC#N)CC5)cc4)n3)C2)cc1 [Example 136]")
"10 to 100 nM"
>>> result("COc1cc(Nc2nc(N3CCC[C@@H](NC(=O)N(C)C)C3)cnc2C(N)=O)ccc1Cl [Example 182]")
"100 to 1000 nM"
>>> result("CC[C@@H]1[C@H](NC(=O)N(C)C)CCCN1c1cnc(C(N)=O)c(Nc2ccc(C3CCN(C4CCC4)CC3)cc2)n1 [Example 236]")
"< 10 nM"
>>> result("NC(=O)c1nnc(N2CCC[C@@H](NC(=O)N3CCCCC3)C2)nc1Nc1ccc(C2CCNCC2)cc1 [Example 335]")
"< 10 nM"
>>> result("CN(C)C(=O)N[C@@H]1CCCCN(c2cnc(C(N)=O)c(Nc3ccc(C4CCN(C5CCCC5)CC4)cc3)n2)C1 [Example 327]")
"< 10 nM"
>>> result("CN(C)C(=O)N[C@@H]1CCCN(c2cnc(C(N)=O)c(Nc3ccc(C4(CN)CC4)cc3)n2)C1 [Example 201]")
"10 to 100 nM"
>>> result("NC(=O)c1nnc(N2CCC[C@@H](NC(=O)C3CCN(C4CCCC4)CC3)C2)nc1Nc1ccc(C(=O)N2CCOCC2)cc1 [Example 33]")
"10 to 100 nM"
>>> result("Cc1ccc(C(=O)N[C@@H]2CCCN(c3nnc(C(N)=O)c(Nc4ccc(C(=O)N5CCOCC5)cc4)n3)C2)cc1 [Example 4]")
"< 10 nM"
>>> result("CC1[C@H](NC(=O)C2CC2)CCCN1c1cnc(C(N)=O)c(Nc2ccc(C3CCN(C4CCCC4)CC3)cc2)n1 (stereo in doubt) [Example 349]")
"< 10 nM"
>>> result("NC(=O)c1nnc(N2CCC[C@@H](NC(=O)c3cccnc3)C2)nc1Nc1ccc(C(=O)N2CCOCC2)cc1 [Example 13]")
"10 to 100 nM"
>>> result("CN(C)C(=O)N[C@@H]1CCCN(c2cnc(C(N)=O)c(Nc3ccc(C4(C(=O)N(C)C)CC4)cc3)n2)C1 [Example 202]")
"< 10 nM"
